System: SK-MEL-5
Test: NCI tumour cell line growth inhibition, 48 h
Calls of active or inactive are those of the source. No stated cut-off is given here; in the data, active = GI50 up to about 1.1 µM and inactive = higher. Square brackets hold non-standard residues; d marks the D form. Peptide text beside a SMILES is read from it. * marks the point of attachment. ξ: configuration not given here. ξF = NC(Cc1ccccc1)C(=O)O; Cbz = O=C(OCc1ccccc1)*; Aib = CC(C)(N)C(=O)O
Classes used: active, inactive

{"compound": "CCOC(=O)c1c2c(n(-c3ccc(OC)cc3)c1C)C(=O)C(=O)c1ccccc1-2", "group": "active"}
{"compound": "CCOC(=O)c1c[nH]c2c(ccc3ncccc32)c1=O", "group": "inactive"}
{"compound": "CN1CN(c2ccccc2)C2(CCN(Cc3csc4ccccc34)CC2)C1=O", "group": "inactive"}
{"compound": "CC(C)C(CCOS(=O)(=O)O)CCC(C)[C@H]1[C@@H](O)C(O)C2[C@]3(O)C[C@@H](O)C4(O)C[C@@H](O)CC[C@]4(C)C3CC[C@@]21C (stereo partly drawn)", "group": "inactive"}
{"compound": "NCc1ccccc1.O=C(O)NCc1ccccc1", "group": "inactive"}
{"compound": "c1ccc(CSSSCc2ccccc2)cc1 [DIBENZYL TRISULFIDE]", "group": "inactive"}
{"compound": "COc1cc(/C=C2\\CC3C4CC[C@H]5C[C@@H](O)CC[C@]5(C)C4CC[C@]3(C)\\C2=N\\O)cc(OC)c1OC (stereo partly drawn)", "group": "inactive"}
{"compound": "Cc1cc2c(=Cc3ccc(N(C)C)cc3)c3ccccc3n2[n+]1C", "group": "active"}
{"compound": "CCOC(=O)N[C@@H]1C(CC(=O)OC)O[C@H]2OC(C)(C)O[C@H]21 (stereo partly drawn)", "group": "inactive"}
{"compound": "COc1ccc(CNc2cnc3cc(N)ccc3n2)cc1OC", "group": "inactive"}
{"compound": "COC(=O)CC(C(C(=O)OC)C(=O)OC)N1C(=O)OC(c2ccccc2)C1c1ccccc1 (stereo not drawn)", "group": "inactive"}
{"compound": "CSc1ncnc2c1ncn2C1OC(CO)C(O)OC1O (stereo not drawn)", "group": "inactive"}
{"compound": "NC(CCc1ncc(-c2ccccc2)s1)C(=O)O (stereo not drawn)", "group": "inactive"}
{"compound": "Cc1c(/C=N/NC(=O)c2cc(Br)cc(Br)c2O)c(=O)n(-c2ccccc2)n1C", "group": "inactive"}
{"compound": "O=C(O)C12CCC(CC1=O)C2 (stereo not drawn)", "group": "inactive"}
{"compound": "COc1ccccc1N1C(=O)CSC1c1cc(OC)c(OC)c(OC)c1 (stereo not drawn)", "group": "inactive"}
{"compound": "CC(=O)O[C@H]1CC[C@H]2[C@@H]3CCC4=CC(=O)C=C[C@]4(O)[C@H]3CC[C@]12C", "group": "inactive"}
{"compound": "Cc1cc(C)c2c(c1)CC1(Cc3c(C)cc(C)cc3C1=O)C2=O (stereo not drawn)", "group": "inactive"}
{"compound": "Clc1nc(Cl)c(Cc2ccccc2)c(Cl)n1", "group": "inactive"}
{"compound": "O=C(c1cc(Cl)ccc1Cl)N1CCN(c2ccc(Cl)c(Cl)c2)CC1", "group": "inactive"}
{"compound": "O=C1CCC(c2ccccc2)(c2ccccc2)CC1", "group": "inactive"}
{"compound": "CCCCCCCCCCCCCCCC(=O)OCC(O)C1OC(=O)C(O)=C1O (stereo not drawn)", "group": "inactive"}
{"compound": "NC(=S)Nc1nc(=S)[nH]c2[nH]ccc12", "group": "inactive"}
{"compound": "CCN(CC)c1ccc(C2N3CCCCC3[C@@H]3c4[nH]c5ccccc5c4CCN23)cc1 (stereo partly drawn)", "group": "inactive"}
{"compound": "CCOC(=O)C1C(=O)C(=O)N2CCc3c([nH]c4ccccc34)C12 (stereo not drawn)", "group": "inactive"}
{"compound": "COC(=O)C(NC(=O)c1ccccc1)C(c1ccc(Cl)cc1)P(=O)(OC)OC (stereo not drawn)", "group": "inactive"}
{"compound": "Cc1cc(S(=O)(=O)NC(=C(C#N)C#N)[n+]2ccc(N(C)C)cc2)c([S-])cc1Cl", "group": "inactive"}
{"compound": "CN1CCN(c2ccc3[nH]c(-c4ccc5[nH]c(CCCc6ccc(N(CCCl)CCCl)cc6)nc5c4)nc3c2)CC1", "group": "inactive"}
{"compound": "CC(C)(NC(=O)OCc1ccccc1)C(=O)NC(Cc1ccccc1)C(=O)O (stereo not drawn) (Cbz-[Aib]-[ξF]-OH)", "group": "inactive"}
{"compound": "COc1ccccc1C(=O)OCC1CCCN2CCCCC12 (stereo not drawn)", "group": "inactive"}
{"compound": "CCN(CC)CCNc1nc(N)c(C#N)c(C#N)c1C#N", "group": "inactive"}
{"compound": "C#CCSc1nc(N)c2ncn(C3OC(COP(=O)(O)O)C(O)C3O)c2n1 (stereo not drawn)", "group": "inactive"}
{"compound": "CCN(CC)CCOCC1CCCN2CCCCC12 (stereo not drawn)", "group": "inactive"}
{"compound": "SC1=NC2=C(CSC/C2=C\\c2cccc(Br)c2)C(c2cccc(Br)c2)N1 (stereo not drawn)", "group": "inactive"}
{"compound": "CC(C)(C)OC(=O)N1CCc2c(n(C/C=C/c3ccccc3)[nH]c2=O)C1", "group": "inactive"}
{"compound": "Oc1cc(Br)cc2cc(Cl)cnc12", "group": "inactive"}
{"compound": "CC(=O)O[C@H]1C[C@H]2[C@@H]([C@H](OC(C)=O)C[C@@H]3CC4(CC[C@@]32C)OOC2(CCCCC2)OO4)[C@@H]2CC[C@H]([C@H](C)CCC(N)=O)[C@@]12C", "group": "inactive"}
{"compound": "O=S1(=O)C[C@@H](NCc2ccccc2)[C@H](NCc2ccccc2)C1", "group": "inactive"}
{"compound": "C=CC(C)(C)n1cc(C2=C(O)C(=O)C(c3cn(C(C)(C)C=C)c4ccccc34)=C(O)C2=O)c2ccccc21", "group": "inactive"}
{"compound": "CCOC(=O)c1sc2c(c1OC(=O)c1ccc(Cl)cc1Cl)c(=O)n(-c1ccccc1)c(=S)n2-c1ccccc1", "group": "inactive"}
{"compound": "CCOC(=O)C(CO)c1nc2c([nH]c1=O)c(=O)n(C)c(=O)n2C (stereo not drawn)", "group": "active"}
{"compound": "COc1ccc(/C(Cl)=C/c2cc(OC)ccc2OC)cc1", "group": "inactive"}
{"compound": "COc1ccc(CCNC(=O)Cc2ccccc2CCO)cc1OC", "group": "inactive"}
